Target: hemagglutinin (HA) of live influenza A/Wisconsin/67/05 (H3N2) virus (influenza A virus A/Wisconsin/67/2005 …)
Assay: cell-based or functional assay
Checkbox rule: % Neutralization lower than 7% = condition met; % Neutralization not lower than 7% = condition not met.

TCN-542 (5079_A16) (antibody, V domains shown) VH: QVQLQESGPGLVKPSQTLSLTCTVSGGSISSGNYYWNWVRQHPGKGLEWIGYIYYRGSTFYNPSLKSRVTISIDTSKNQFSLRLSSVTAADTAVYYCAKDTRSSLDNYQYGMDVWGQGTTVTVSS VL: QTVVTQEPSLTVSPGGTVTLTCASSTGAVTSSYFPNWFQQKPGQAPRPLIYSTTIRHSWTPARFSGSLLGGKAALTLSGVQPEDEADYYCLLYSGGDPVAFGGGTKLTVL	condition not met

In the record for TCN-545 (5082_I15) (antibody, V domains shown) VH: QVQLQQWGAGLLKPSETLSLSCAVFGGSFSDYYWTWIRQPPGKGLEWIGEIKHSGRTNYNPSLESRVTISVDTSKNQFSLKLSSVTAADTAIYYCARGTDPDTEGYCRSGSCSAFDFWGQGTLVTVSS VL: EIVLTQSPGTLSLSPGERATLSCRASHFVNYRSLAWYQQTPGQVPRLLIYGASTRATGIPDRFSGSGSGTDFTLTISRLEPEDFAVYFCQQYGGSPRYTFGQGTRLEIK , is % Neutralization less than 7%?
condition not met

In the record for TCN-536 (5095_N01) (antibody, V domains shown) VH: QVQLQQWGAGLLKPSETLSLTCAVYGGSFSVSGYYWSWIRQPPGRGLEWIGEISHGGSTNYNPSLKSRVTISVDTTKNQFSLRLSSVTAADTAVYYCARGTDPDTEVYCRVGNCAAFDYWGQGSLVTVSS VL: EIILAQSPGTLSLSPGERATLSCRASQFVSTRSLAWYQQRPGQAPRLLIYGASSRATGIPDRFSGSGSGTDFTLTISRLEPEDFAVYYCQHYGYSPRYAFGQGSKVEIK , is % Neutralization less than 7%?
condition not met

In the record for TCN-538 (3206_O17) (antibody, V domains shown) VH: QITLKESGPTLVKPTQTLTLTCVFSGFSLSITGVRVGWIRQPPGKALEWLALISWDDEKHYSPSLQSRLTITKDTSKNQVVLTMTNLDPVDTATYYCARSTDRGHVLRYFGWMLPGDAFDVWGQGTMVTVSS VL: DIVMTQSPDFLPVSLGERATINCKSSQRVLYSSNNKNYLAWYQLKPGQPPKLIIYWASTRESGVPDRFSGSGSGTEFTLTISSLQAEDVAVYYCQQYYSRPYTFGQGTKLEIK , is % Neutralization less than 7%?
condition met
